System: SNB-19 CNS
method.summary: NCI-60 one-dose screen, 48 h (100 = growth as untreated, 0 = no growth, -100 = all killed)
setup.conditions: 10 µM unless noted
About 83,000 compounds went through this panel and 20% of them were active in at least one assay; those are over-represented in the sample as a whole.
# growth values compiled below
The figure you give is taken to be in %; do not add the unit.

Prompt: # return growth of Cc1cc2c(c(=O)o1)C(c1ccc(OC(=O)N3CCOCC3)cc1)C(C#N)=C(N)O2 (centres undefined) (system: SNB-19 CNS)
Completion: 101

Prompt: # return growth of COc1cc(-c2nc(-c3nc4ccccc4[nH]3)cc3c2[nH]c2ccccc23)cc(OC)c1OC (system: SNB-19 CNS)
Completion: 66.9

Prompt: # return growth of C=C1C(=O)O[C@H]2[C@H]1CC/C(Cn1cc(-c3ccccc3C(F)(F)F)nn1)=C\CC[C@@]1(C)O[C@@H]21 (system: SNB-19 CNS)
Completion: 53.3

* * *

Test system: OVCAR-8 ovarian
method.summary: NCI-60 one-dose screen, 48 h (100 = growth as untreated, 0 = no growth, -100 = all killed)
setup.conditions: 10 µM unless noted
About 83,000 compounds went through this panel and 20% of them were active in at least one assay; those are over-represented in the sample as a whole.
# 1 (yes) = growth below 90% (exclusive); 0 (no) = growth at/above 90%

> print(dat)
                                   compound  qualitative.label
1  O=C(CNc1ccc(Cl)cc1)Nc1ccc(-c2nc3ccccc3s2)cc1            1 (yes)

Prompt: Find out if reported growth for O=C(Nc1ccccc1)OCC1OCOC(COC(=O)Nc2ccccc2)C1OC(=O)Nc1ccccc1 (stereo not given) is less than 90%
Completion: 1 (yes)

Prompt: Find out if reported growth for CN(C)c1ncc(-c2ccc(C(F)(F)F)cc2)c(NC2CCCCCC2)n1 is less than 90%
Completion: 1 (yes)

Prompt: Find out if reported growth for O=C(Nc1ccc(I)cc1)c1cc([N+](=O)[O-])ccc1O is less than 90%
Completion: 1 (yes)

* * *

Tested on: LOX IMVI melanoma
method.summary: NCI-60 one-dose screen, 48 h (100 = growth as untreated, 0 = no growth, -100 = all killed)
setup.conditions: 10 µM unless noted
The panel holds about 83,000 compounds, 20% with a hit somewhere; the sample as a whole holds those more often.
# growth values compiled below
The figure you give is taken to be in %; do not add the unit.

Below are worked cases with known answers.
> print(dat)
                    structure.smiles.string  recorded.value
1   Cc1cccc(NC(=O)c2sc3nc4c(cc3c2N)CCC4)c1C            24.5
2  O=S(=O)(NCCCNc1cc(-c2cn(-c3ccccc3)nc2-c2cccc(O)c2)ccn1)c1ccc(Br)cc1           -29.5
3  CC(C)N(Cc1ccc(CN(C(=O)CCl)C(C)C)cc1)C(=O)CCl           -61.2
4  CCn1cc(C(=O)O)c(=O)c2cc(F)c(N3CCN(S(=O)(=O)c4ccc(Cl)cc4Cl)CC3)cc21           -35.4
5  CCOP(=O)(CCN1CCN(CCCCCOc2cc3c(cc2OC)C(=O)N2CCC[C@H]2C=N3)CC1)OCC              22
6   COc1cc(NCCN=C(N)NC(N)=NC(C)C)c2ncccc2c1            89.2
7    COc1ccc(/C=C/C(=O)c2cccc(B(O)O)c2)cc1O            13.8
8  COc1ccc(NC(=O)CSc2nc3ccccc3c(=O)n2Cc2cc(OC)c(OC)c(OC)c2)cc1            94.5

Prompt: In one line, give reported growth of the entry O=S(=O)(NCCNc1cc(-c2cn(-c3ccccc3)nc2-c2ccccc2)ccn1)c1cccc2ccccc12 .
Completion: 45.8

* * *

Tested on: TK-10 renal
method.summary: NCI-60 one-dose screen, 48 h (100 = growth as untreated, 0 = no growth, -100 = all killed)
setup.conditions: 10 µM unless noted
Compounds without any hit were thinned out: in the full panel of roughly 83,000, 20% have a hit. The source made the active and inactive calls. The calls were made as follows: active = growth percent below 10; inactive = the rest.
observed.property: growth

Below are worked cases with known answers.
molecule	growth
COC1=CC(c2ccc[nH]2)=N/C1=C\c1[nH]c(C)c(C(=O)CCC(=O)Oc2ccc3c(c2)CCC2C3CC[C@]3(C)[C@@H](O)CC[C@@H]23)c1C (stereo partly drawn)	34.4% (inactive)
Cc1sc(N=Nc2ccc(N(C)C)cc2)[n+]([O-])c1C	104% (inactive)

Prompt: In one line, give reported growth of the entry COc1ccc(-c2nc3sccn3c2-c2ccnc(NCCCNS(=O)(=O)c3ccc(C)cc3)n2)cc1 .
Completion: 66% (inactive)

Prompt: In one line, give reported growth of the entry Nc1nc(Cl)c2c(ncn2Cc2ccc(CCl)cc2)n1 .
Completion: 78.9% (inactive)

Prompt: In one line, give reported growth of the entry O=C(C[N+](=O)[O-])c1ccc(Cl)cc1 .
Completion: 109% (inactive)

Prompt: In one line, give reported growth of the entry CC[C@H](C)[C@H]1NC(=O)[C@@H](N[C@](C)(O)[C@@H](N)CC(C)C)[C@@H](C)OC(=O)[C@H](Cc2ccc(OC)cc2)N(C)C(=O)[C@@H]2CCCN2C(=O)[C@H](CC(C)C)NC(=O)[C@@H](C)C(=O)[C@H](C(C)C)OC(=O)C[C@@H]1O .
Completion: -15% (active)

Prompt: In one line, give reported growth of the entry C=C1C(=O)O[C@H]2[C@H]1CC/C(COC(=O)NCc1ccc(OC)cc1)=C\CC[C@@]1(C)O[C@@H]21 .
Completion: 31.2% (inactive)

Prompt: In one line, give reported growth of the entry O=C(CNC1CCCCC1)Nc1ccc(-c2nc3ccccc3s2)cc1 .
Completion: 103% (inactive)

* * *

System: A549/ATCC NSCLC
method.summary: NCI-60 one-dose screen, 48 h (100 = growth as untreated, 0 = no growth, -100 = all killed)
setup.conditions: 10 µM unless noted
About 83,000 compounds went through this panel and 20% of them were active in at least one assay; those are over-represented in the sample as a whole.
observed.property: growth (%)
The figure you give is taken to be in %; do not add the unit.

Below are worked cases with known answers.
> print(dat)
                                   compound  recorded.value
1    COc1ccccc1OCC(=O)Nc1sc2c(c1C(N)=O)CCC2            85.8
2  COc1ccc(NC(=O)CSc2nc3ccccc3c(=O)n2Cc2cc(OC)c(OC)c(OC)c2)cc1            99.3
3  Cc1ccc(S(=O)(=O)NCCCNc2nccc(-c3c(-c4ccccc4)nc4sccn34)n2)cc1            58.4

Next:
Prompt: In one line, give reported growth of the entry N#Cc1ccc(NC(=O)c2ccc3cccnc3c2O)cc1 .
Completion: 15.1

* * *

Test system: HOP-62 NSCLC
method.summary: NCI-60 one-dose screen, 48 h (100 = growth as untreated, 0 = no growth, -100 = all killed)
setup.conditions: 10 µM unless noted
This is part of a sample that, as a whole, favours compounds with a hit. Of some 83,000 tested, about 20% had one in any assay.
observed.property: growth (%)
The figure you give is taken to be in %; do not add the unit.

Below are worked cases with known answers.
compound	u	growth
N#Cc1ncc(-c2ccc(F)c(F)c2F)c(NC2CCCCCC2)n1	%	82.3
Nc1c(C(=O)Nc2ccccc2)sc2nc3c(cc12)CCC3	%	96.4
Cc1ccc2c(c1)C(C)Cc1c(N(C)C)ncnc1N2C (stereo not given)	%	36.4
CN(C)C/C=C/C(=O)Nc1cc2c(Nc3ccc(F)c(Cl)c3F)ncnc2cc1OCCOC(F)F	%	20.6

Next:
Prompt: # return growth of C=C1C(=O)O[C@H]2[C@H]1CC/C(COC(=O)NCCc1ccc(Br)cc1)=C\CC[C@@]1(C)O[C@@H]21 (system: HOP-62 NSCLC)
Completion: 54.6

* * *

System: SK-MEL-28 melanoma
method.summary: NCI-60 one-dose screen, 48 h
setup.conditions: 10 µM unless noted
Protocol: Growth inhibition of the SK-MEL-28 human tumor cell line is measured as a screen for anti-cancer activity. Cells are grown in 96 well plates and exposed to the test compound for 48 hours. Compounds are tested at a single concentration, which is 10^-5 M for most compounds. The reported endpoint is percent growth (GI% or GIPRCNT), where numbers from 0 - 100% represent growth inhibition, and numbers from -100% - 0 represent cell death. For example, a value of 40 represents 60% growth inhibition. […]
This is part of a sample that, as a whole, favours compounds with a hit. Of some 83,000 tested, about 20% had one in any assay. Activity calls are given as the source filed them. How the source made its calls: active means growth percent below 10; inactive means the rest.
Permitted responses: active, inactive

> print(dat)
                                   molecule           tested.on  qualitative.label
1          Nc1ccc(S(=O)(=O)c2ccc(Cl)cc2)cc1  SK-MEL-28 melanoma           inactive
2  CCCCCCCCCN1C(=O)/C(=c2\sc3n(c2=O)C2C(NN=3)N(CC)C(=O)N2CC)c2ccccc21 (configuration not stated)  SK-MEL-28 melanoma           inactive
3  Nc1c(C(=O)Nc2cccc(Cl)c2Cl)sc2nc3c(cc12)C(=O)CCC3  SK-MEL-28 melanoma           inactive
4  CCn1cc(C(=O)O)c(=O)c2cc(F)c(N3CCN(S(=O)(=O)c4ccc(Cl)cc4Cl)CC3)cc21  SK-MEL-28 melanoma           inactive

Prompt: Hi team, can someone confirm the assay call for COc1ccc(/C(=N/O)c2cc(F)c(F)c(OC)c2F)cc1O ?
Completion: inactive

Prompt: Hi team, can someone confirm the assay call for COc1cc(-n2nc(C(=O)Nc3ccc(C(=O)O)cc3)nc2-c2ccccc2)cc(OC)c1OC ?
Completion: inactive

Prompt: Hi team, can someone confirm the assay call for CCN(CC)CCSc1c2ccc(Cl)cc2nc2ccc(OC)cc12 ?
Completion: inactive

Prompt: Hi team, can someone confirm the assay call for C=C1C(=O)O[C@H]2[C@H]1CC/C(COC(=O)NCc1cc(OC)cc(OC)c1)=C\CC[C@@]1(C)O[C@@H]21 ?
Completion: active

Prompt: Hi team, can someone confirm the assay call for O=C(OCCCCOC(=O)n1cnc2ccccc21)n1cnc2ccccc21 ?
Completion: inactive

Prompt: Hi team, can someone confirm the assay call for COc1ccc(Cl)cc1NC(N)=S ?
Completion: inactive

Prompt: Hi team, can someone confirm the assay call for COc1cc(OC)c(C(=O)/C=C/c2ccc(C(F)(F)F)cc2)c(OC)c1 ?
Completion: inactive

Where these numbers come from: PubChem BioAssay (NCI)
